- Test system: calpain II (m-calpain), Sus scrofa
- PROTOCOL TEXT: inhibitors of pig calpain II, primary screen, biochemical, fluorogenic peptide substrate, 1536-well (AID 1236)
- ASSAY CONTEXT: purified calpain II, 30 min, at 16 µM
The campaign covered roughly 220,000 compounds. About 800 (0.36%) were called active.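 How the source made its calls: active means inhibition above about 50% (limit read from the data); inactive means the rest.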 Many of the other results were omitted from the sample, so actives are more common in it than they were.
Labels: class 1 = active, class 0 = inactive

> print(dat)
                                smiles.input                      assayed.system  group.label
 1  O=C(c1ccc(Cl)c([N+](=O)[O-])c1)N1CCN(c2ccccc2)CC1  calpain II (m-calpain), Sus scrofa      class 0
 2   CC(C)N(Cc1ccccc1)C(=S)Nc1ccc(OC(F)F)cc1  calpain II (m-calpain), Sus scrofa      class 0
 3  Cc1csc(NC(=O)c2ccc(-c3ccc(Cl)cc3Cl)o2)n1  calpain II (m-calpain), Sus scrofa      class 0
 4        CCOc1ccc(/C=N/OCC(=O)NCc2cccs2)cc1  calpain II (m-calpain), Sus scrofa      class 0
 5  COc1cc(NC(=O)c2ccccc2NS(=O)(=O)c2ccc(Cl)s2)cc(OC)c1  calpain II (m-calpain), Sus scrofa      class 0
 6              CCOC(=O)c1ccc2c(c1)nc(C)n2CC  calpain II (m-calpain), Sus scrofa      class 0
 7   Cc1ccnc(NC(=O)Cn2ccc([N+](=O)[O-])n2)c1  calpain II (m-calpain), Sus scrofa      class 0
 8  O=C(Cn1nnc(-c2ccccc2)n1)N/N=C/c1ccc(-c2ccc(Cl)cc2)o1  calpain II (m-calpain), Sus scrofa      class 0
 9        Cc1nc2ccccc2c(C)c1C(=O)c1ccc(F)cc1  calpain II (m-calpain), Sus scrofa      class 0
10          CC(C)(C)NC(=O)C(=O)NN=C1CCCCCCC1  calpain II (m-calpain), Sus scrofa      class 0
11  O=C(O)C1=C[C@H](c2cccs2)C[C@H](OCCCCO)O1  calpain II (m-calpain), Sus scrofa      class 0
12   CCN(CC(=O)NCCc1ccccc1)S(=O)(=O)c1ccccc1  calpain II (m-calpain), Sus scrofa      class 0
13  O=C(COC(=O)CCCSc1nc2ccccc2[nH]1)Nc1ccc(Oc2ccccc2)cc1  calpain II (m-calpain), Sus scrofa      class 1
14  CCOC(=O)c1cc2c(=O)n3ccccc3nc2n(CC(C)C)c1=NC(=O)c1c(-c2c(F)cccc2Cl)noc1C  calpain II (m-calpain), Sus scrofa      class 0

---

- Test system: calpain II (m-calpain), Sus scrofa
- PROTOCOL TEXT: inhibitors of pig calpain II, primary screen, biochemical, fluorogenic peptide substrate, 1536-well (AID 1236)
- ASSAY CONTEXT: purified calpain II, 30 min, at 16 µM, hits give high values
About 800 (0.36%) of roughly 220,000 compounds were called active. The entries come from a sample that favours actives as a whole.
# inhibition listing for each entry below
MEASURED ATTRIBUTE: inhibition (%)

> print(dat)
                                    compound                      assayed.system  measured.attribute  output.unit  measured.result
 1  COc1cccc2cc(S(=O)(=O)c3ccc(C)cc3)/c(=N/NS(=O)(=O)c3ccc(C)cc3)oc12  calpain II (m-calpain), Sus scrofa          inhibition            %            -24.9
 2  O=C(Nc1cc2c3c(c1)C1CCCC1CN3CC1CCCC21)c1ccc([N+](=O)[O-])cc1 (stereo not given)  calpain II (m-calpain), Sus scrofa          inhibition            %            -34.8
 3              O=C(Nc1nnc(C2CC2)s1)c1ccccn1  calpain II (m-calpain), Sus scrofa          inhibition            %            -3.35
 4  Cc1cc(C)c2nc(-c3cccnc3)cc(C(=O)Nc3ccc(S(=O)(=O)Nc4onc(C)c4C)cc3)c2c1  calpain II (m-calpain), Sus scrofa          inhibition            %             55.4
 5  Cc1cc(-c2ccc(/C=N/n3cnnc3)o2)c([N+](=O)[O-])cc1C  calpain II (m-calpain), Sus scrofa          inhibition            %             34.4
 6  COc1ccc(C(=O)Nc2ccc(S(=O)(=O)Nc3onc(C)c3C)cc2)cc1OC  calpain II (m-calpain), Sus scrofa          inhibition            %             29.6
 7                 CCOc1cc(/C=N/O)cc(Br)c1OC  calpain II (m-calpain), Sus scrofa          inhibition            %             2.94
 8  O=C(CCS(=O)(=O)Cc1ccccc1)Nc1ccc2c(c1)OCCO2  calpain II (m-calpain), Sus scrofa          inhibition            %            -23.4
 9      CCCc1cc(-c2n[nH]c(=S)n2Cc2ccccc2)cs1  calpain II (m-calpain), Sus scrofa          inhibition            %             67.9
10  CCC/C=C(\CCC)C(NC(=O)Cc1ccccc1)c1ccc(C(=O)OC)cc1 (stereo not given)  calpain II (m-calpain), Sus scrofa          inhibition            %             3.04
11          Cc1ccsc1/C=C1\SC(N2CCOCC2)=NC1=O  calpain II (m-calpain), Sus scrofa          inhibition            %             15.5
12     Cc1nc(-c2ccccc2)sc1C(=O)/C=C/c1ccccc1  calpain II (m-calpain), Sus scrofa          inhibition            %            -0.94
13  Cc1cc(NC(=O)/C=C/C(=O)N(CC(=O)NC2CCCC2)c2ccc(F)cc2)no1  calpain II (m-calpain), Sus scrofa          inhibition            %             1.62
14      COc1cc(/C=N/O)cc(Br)c1OCc1cccc(Cl)c1  calpain II (m-calpain), Sus scrofa          inhibition            %             56.7
15  O=C1Nc2ccc([N+](=O)[O-])cc2C1=Nc1cccc(CO)c1  calpain II (m-calpain), Sus scrofa          inhibition            %             21.2
16  COc1cc(C(=O)NCc2ccc(-n3cccc3)cc2)cc(OC)c1OC  calpain II (m-calpain), Sus scrofa          inhibition            %             8.77
17       Nc1ccc(Cl)c(S(=O)(=O)Nc2ccccc2Cl)c1  calpain II (m-calpain), Sus scrofa          inhibition            %              -15
18  COc1ccc(O[C@H]2C=C[C@@H](c3ccccc3)O[C@@H]2CO/N=C/C[C@@H]2C=C[C@H](OC(C)=O)[C@@H](COC(C)=O)O2)cc1  calpain II (m-calpain), Sus scrofa          inhibition            %               27
19  COc1ccc(Cl)cc1C(=O)Nc1ccc(N(C)C(C)=O)cc1  calpain II (m-calpain), Sus scrofa          inhibition            %            -12.6
20         Cc1ccc(N2CCN(/N=C/c3cccs3)CC2)cc1  calpain II (m-calpain), Sus scrofa          inhibition            %            -29.6
21  COc1ccc(CN2CCCCC2C)cc1OC (stereo not given)  calpain II (m-calpain), Sus scrofa          inhibition            %              -66
22     Cc1ccc(SCC(=O)c2sc(-c3ccccc3)nc2C)cc1  calpain II (m-calpain), Sus scrofa          inhibition            %             66.3
23  O=C(OCc1ccc(Br)cc1)c1cccc(-c2nnc(-c3ccccc3)o2)c1  calpain II (m-calpain), Sus scrofa          inhibition            %            -6.16
24  COc1cc(C(=O)NCc2ccc3c(c2)cc(C)n3C)cc(OC)c1OC  calpain II (m-calpain), Sus scrofa          inhibition            %               65
25  CC(C)CNC(=O)CC(c1ccccc1)c1c(O)ccc2ccccc12 (stereo not given)  calpain II (m-calpain), Sus scrofa          inhibition            %            -74.9
26  Oc1c(Br)cc(/C=N/NC(=S)NCC2CCCO2)cc1Br (stereo not given)  calpain II (m-calpain), Sus scrofa          inhibition            %            -20.7
27  COc1cc(S(=O)(=O)N(Cc2cccs2)C2CC2)ccc1-n1cnnn1  calpain II (m-calpain), Sus scrofa          inhibition            %               26
28                 CCOc1c(Cl)cc(/C=N/O)cc1OC  calpain II (m-calpain), Sus scrofa          inhibition            %            -1.32
29    NC(N)=N/N=C/c1ccc(Cl)c([N+](=O)[O-])c1  calpain II (m-calpain), Sus scrofa          inhibition            %              -20
30  O=C(Nc1ccccc1Cl)O/N=C(/c1ccccc1)c1ccccn1  calpain II (m-calpain), Sus scrofa          inhibition            %            -15.9
